- System: AKT protein phosphorylated on serine 473 (P-AKT-S473) in PC3 human prostate carcinoma line
- Assay Info: Study of pAKT expression in PC3 human prostate carcinoma cells measured by the MSD Multi-spot Biomarker Detection technique (Test B)
- Format: cell-based
- Assay Setup: Homo sapiens, PC-3, P-AKT-S473 in PC3 cells, MSD sandwich immunoassay, 1 to 2 h incubation; absolute IC50, mean of 2 experiments
pIC50: −log10 of the molar value.
Assay Metric: pIC50

Please review the entries below; each comes with its answer.
{"Molecule": "O=c1cc(N2CCOCC2)nc2n1CC[C@@H](C(F)(F)F)N2Cc1cccc(F)c1", "Test Value": 7.62}
{"Molecule": "CC(c1ccc(F)cc1)N1c2nc(N3CCOCC3)cc(=O)n2CC[C@H]1C(F)(F)F (single isomer, unassigned)", "Test Value": 7.62}
{"Molecule": "O=c1cc(N2CCOCC2)nc2n1CC[C@@H](C(F)(F)F)N2c1ccccc1F", "Test Value": 8.15}
{"Molecule": "Cc1cccc(N2c3nc(N4CCOCC4)cc(=O)n3CC[C@H]2C(F)(F)F)c1", "Test Value": 7.70}
{"Molecule": "O=c1cc(N2CCOCC2)nc2n1CC[C@@H](C(F)(F)F)N2c1ccc(Cl)cc1", "Test Value": 7.74}
{"Molecule": "C[C@H](c1ccc(Br)cc1)N1c2nc(N3CCOCC3)cc(=O)n2CC[C@H]1C(F)(F)F (single isomer, unassigned)", "Test Value": 7.34}
{"Molecule": "O=c1cc(N2CCOCC2)nc2n1CC[C@@H](C(F)(F)F)N2Cc1csc2ccc(Cl)cc12", "Test Value": 7.48}
{"Molecule": "COc1cccc(CN2c3nc(N4CCOCC4)cc(=O)n3CC[C@H]2C(F)(F)F)c1", "Test Value": 7.74}
{"Molecule": "COc1ccc([C@H](O)CN2c3nc(N4CCOCC4)cc(=O)n3CC[C@H]2C(F)(F)F)cc1", "Test Value": 9.00}
{"Molecule": "O=c1cc(N2CCOCC2)nc2n1CC[C@@H](C(F)(F)F)N2Cc1ccc(F)c(F)c1F", "Test Value": 6.82}

(P) O=C(Cc1ccccc1)N1c2nc(N3CCOCC3)cc(=O)n2CC[C@H]1C(F)(F)F
(Q) O=c1c(F)c(N2CCOCC2)nc2n1CC[C@@H](C(F)(F)F)N2Cc1ccccc1
Kindly identify the item with the lower pIC50 figure among these two: P and Q I would appreciate it if you answered with the label of your choice. P
(P: 7.85, Q: 8.40)

----------
- System: P. falciparum (highly chloroquine-resistant strain Fcm29-Cameroon)
- Assay Info: Antimalarial activity test (radioactive micromethod of Desjardins)
- Type: cell-based
- Assay Setup: Plasmodium falciparum, Erythrocyte, 1 μM, infected human erythrocytes, 48 h, tritiated hypoxanthine incorporation
Assay Metric: inhibition at 1 µM (%)
# unit: % | format: bare number

{"Smiles String": "O=c1cc(N2CCOCC2)nc2n1CC[C@@H](C(F)(F)F)N2CCc1ccc(O)cc1", "Assay Metric": "inhibition at 1 µM", "Test Value": 99}
{"Smiles String": "O=c1cc(N2CCOCC2)nc2n1CC[C@@H](C(F)(F)F)N2c1ccccc1", "Assay Metric": "inhibition at 1 µM", "Test Value": 59}

Consider the record given below.
State the recorded inhibition at 1 µM for this entry: `COc1ccccc1[C@H](O)CN1c2nc(N3CCOCC3)cc(=O)n2CC[C@H]1C(F)(F)F` 99
